Known IC50 of a selection of compounds
# target-or-system: Substance-P receptor (Bos taurus)
# assay-explanation: In vitro binding affinity for Tachykinin receptor 1 of bovine retinal membranes using [3H]Sar9-substance P as radioligand

Observe how each entry below is paired with its result.
CN(C(=O)c1cc(C(F)(F)F)cc(C(F)(F)F)c1)[C@@H](/C=C/C(=O)N[C@@H]1CCCCNC1=O)Cc1ccc(Cl)c(Cl)c1: 4.8 nM
CN(C(=O)c1cc(C(F)(F)F)cc(C(F)(F)F)c1)N(CCC(=O)N[C@@H]1CCCCNC1=O)Cc1ccc2ccccc2c1: 6.4 nM
CN(C(=O)c1cc(C(F)(F)F)cc(C(F)(F)F)c1)N(CCC(=O)N[C@@H]1CCCCNC1=O)Cc1ccc(Cl)c(Cl)c1: 1.4 nM
CN(C(=O)c1cc(C(F)(F)F)cc(C(F)(F)F)c1)[C@@H](/C=C/C(=O)NC1CCCCCC1)Cc1ccc(Cl)cc1: 12 nM

Could you now look at the following compound, please?
May I ask what IC50 has been recorded for CN(C(=O)c1cc(C(F)(F)F)cc(C(F)(F)F)c1)[C@@H](/C=C/C(=O)NC1(C(N)=O)CCCCC1)Cc1ccc(Cl)cc1 ? 1 nM

###

Known IC50 of a selection of compounds
# target-or-system: Substance-P receptor (Bos taurus)
# assay-explanation: In vitro binding affinity for Tachykinin receptor 1 of bovine retinal membranes using [3H]Sar9-substance P as radioligand
Quick note: give the figure in nM, leave out the unit.

// map CN(C(=O)c1cc(C(F)(F)F)cc(C(F)(F)F)c1)N(CCC(=O)N[C@@H]1CCCCNC1=O)Cc1cc(Br)c(Br)s1 to recorded IC50 (system: Substance-P receptor (Bos taurus)) 18

// map CN(C(=O)c1cc(C(F)(F)F)cc(C(F)(F)F)c1)[C@@H](/C=C/C(=O)N[C@@H]1CCCCNC1=O)Cc1ccc2ccccc2c1 to recorded IC50 (system: Substance-P receptor (Bos taurus)) 1.1

// map CN(C(=O)c1cc(C(F)(F)F)cc(C(F)(F)F)c1)[C@@H](/C=C/C(=O)N[C@@H]1CCCCNC1=O)Cc1cc(Br)c(Br)s1 to recorded IC50 (system: Substance-P receptor (Bos taurus)) 20

// map CN(C(=O)c1cc(C(F)(F)F)cc(C(F)(F)F)c1)[C@@H](/C=C/C(=O)N[C@@H]1CCCCNC1=O)Cc1cn(C)c2ccccc12 to recorded IC50 (system: Substance-P receptor (Bos taurus)) 0.5
